Quick record of IC50 values for Histone acetyltransferase KAT6A [507-778] (Homo sapiens, UniProt Q92794).

As a guide, the following entries are already answered.
compound	tested_on	result
COc1ccc(N2CCN(C)CC2)cc1S(=O)(=O)Nc1noc2cc(Cn3cccn3)cc(OC)c12 [US20240400545, Compound 5]	Histone acetyltransferase KAT6A [507-778] (Homo sapiens, UniProt Q92794)	< 200 nM
COc1cc(C#Cc2cccnc2)cc(OC)c1S(=O)(=O)Nc1noc2cc(Cn3cccn3)cc(OC)c12 [US20240400545, Compound 19]	Histone acetyltransferase KAT6A [507-778] (Homo sapiens, UniProt Q92794)	< 5 nM
CC#Cc1cccc(OC)c1S(=O)(=O)Nc1noc2cc(Cn3cccn3)cc(OC)c12 [US20240400545, Compound 23]	Histone acetyltransferase KAT6A [507-778] (Homo sapiens, UniProt Q92794)	< 20 nM

Specify IC50 for CC#Cc1cc(OC)c(S(=O)(=O)Nc2noc3cc(Cn4cccn4)cc(OC)c23)c(OC)c1 [US20240400545, Compound 9] and stop.
< 10 nM

Specify IC50 for C#Cc1ccc(S(=O)(=O)Nc2noc3cc(Cn4cccn4)cc(OC)c23)c(OC)c1 [US20240400545, Compound 11] and stop.
< 10 nM

Specify IC50 for COc1cc(C#CC2CC(F)(F)C2)cc(OC)c1S(=O)(=O)Nc1noc2cc(Cn3cccn3)cc(OC)c12 [US20240400545, Compound 15] and stop.
< 5 nM

Specify IC50 for COc1cc(C#CC2CC2)cc(OC)c1S(=O)(=O)Nc1noc2cc(Cn3cccn3)cc(OC)c12 [US20240400545, Compound 10] and stop.
< 5 nM

Just for reference, BindingDB's records for patent US20240400545 is where these values come from.
